- test-target: SARM1 (50-724) (Homo sapiens)
- Construct: Purified SARM1 (50-724) with a final concentration of 2 nM was pre-incubated with a test compound
- measurement-notes: SARM1 (50-724) enzymatic assay (LC-MS/MS)
- Assay type: biochemical
- condition: Purified SARM1 (50-724) 2 nM, NMN as activator, NAD+ as substrate, 1 h at room temperature, read-out: IC50 (SARM1 inhibitory activity)
pIC50: −log10 of the molar value.
measured-parameter: pIC50

Below are worked cases with known answers.
compound	pIC50
O=S(=O)(Cc1nnc(-c2nc3cc(Cl)cc(F)c3[nH]2)n1-c1cccc(F)c1Cl)C1CC1 [Compound 194]	≥ 7.00
FC(F)(F)c1ccc2[nH]c(-c3nncnc3-c3cccc(Cl)c3Cl)nc2c1 [Compound 307]	≥ 7.00
FC(F)(F)c1ccc2[nH]c(-c3ccnnc3-c3cccc(Cl)c3Cl)nc2c1 [Compound 296]	6.30 to 7.00

Attention now turns to another entry.
Task item: What does the data say about its pIC50? Entry: CN(c1cc(F)c2[nH]c(-c3nncn3-c3cnccc3C(F)(F)F)nc2c1)c1nccs1 [Compound 417]
Reply: ≥ 7.00

* * *

# IC50 per entry for SARM1 (50-724) (Homo sapiens)

Examples with their reported IC50 follow.
compound	IC50
FC1(F)CN(Cc2nnc(-c3nc4cc(C(F)(F)F)ccc4[nH]3)n2-c2cccc(Cl)c2Cl)C1 [Compound 157]	≤ 100 nM
CC(C)(N)c1ccc2[nH]c(-c3nncn3-c3cnccc3C(F)(F)F)nc2c1 [Compound 448]	100 to 500 nM

Task item: What value of measured IC50 is listed for OC1CCN(c2cc(F)c3[nH]c(-c4nncn4-c4cnccc4C(F)(F)F)nc3c2)C1 (centres unmarked) [Compound 447] ?
Reply: 500 to 1000 nM

Task item: Would you mind telling me what IC50 value was observed for FC(F)(F)c1ccc2[nH]c(-c3nnccc3-c3ccncc3C(F)(F)F)nc2c1 [Compound 302] ?
Reply: 100 to 500 nM

Task item: // query IC50 value for entry C=C(F)Cc1cc(F)c2[nH]c(-c3nncn3-c3cnccc3C(F)(F)F)nc2c1 [Compound 316]
Reply: ≤ 100 nM

* * *

Here's a batch of molecules along with measured IC50 for SARM1 (50-724) (Homo sapiens, UniProt Q6SZW1).

Please review the entries below; each comes with its answer.
molecule	IC50
FC(F)Oc1ncccc1-n1cnnc1-c1nc2cc(C(F)(F)F)ccc2[nH]1 [Compound 235]	≤ 100 nM
CS(=O)(=O)CCc1nnc(-c2nc3cc(C(F)(F)F)ccc3[nH]2)n1-c1cccc(Cl)c1Cl [Compound 138]	≤ 100 nM

Now consider the entry below.
Task item: Param readout= IC50; system= SARM1 (50-724) (Homo sapiens, UniProt Q6SZW1); entry= FC(F)(F)c1ccc2[nH]c(-c3nnnn3-c3cccc(Cl)c3Cl)nc2c1 [Example 99] ; returns value.
Reply: 100 to 500 nM

* * *

Catalogue of molecules with associated pIC50
- test-target: SARM1 (50-724) (Homo sapiens)
- Construct: Purified SARM1 (50-724) with a final concentration of 2 nM was pre-incubated with a test compound
- Sequence (Q6SZW1 50-724): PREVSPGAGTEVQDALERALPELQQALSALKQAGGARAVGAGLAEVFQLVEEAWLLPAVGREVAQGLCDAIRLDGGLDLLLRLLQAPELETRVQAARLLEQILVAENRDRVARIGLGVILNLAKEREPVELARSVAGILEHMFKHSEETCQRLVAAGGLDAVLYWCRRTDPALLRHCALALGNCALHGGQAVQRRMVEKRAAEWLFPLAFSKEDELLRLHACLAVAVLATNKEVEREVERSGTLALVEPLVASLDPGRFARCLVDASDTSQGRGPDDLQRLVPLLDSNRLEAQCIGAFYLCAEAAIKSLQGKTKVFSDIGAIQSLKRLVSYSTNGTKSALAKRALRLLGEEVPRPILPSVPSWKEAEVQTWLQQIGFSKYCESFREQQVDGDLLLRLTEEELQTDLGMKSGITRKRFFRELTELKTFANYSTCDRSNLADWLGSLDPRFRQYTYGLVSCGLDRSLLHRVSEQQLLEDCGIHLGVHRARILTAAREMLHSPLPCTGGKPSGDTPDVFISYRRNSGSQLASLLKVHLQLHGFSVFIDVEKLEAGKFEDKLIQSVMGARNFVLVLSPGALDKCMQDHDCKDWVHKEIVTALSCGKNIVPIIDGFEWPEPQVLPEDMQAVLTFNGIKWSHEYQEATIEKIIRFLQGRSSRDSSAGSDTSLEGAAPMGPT
- measurement-notes: SARM1 (50-724) enzymatic assay (LC-MS/MS)
- Type: biochemical
- condition: Purified SARM1 (50-724) 2 nM, NMN as activator, NAD+ as substrate, 1 h at room temperature, read-out: IC50 (SARM1 inhibitory activity)
pIC50: −log10 of the molar value.

// solved cases for pIC50 follow
molecule	pIC50
FC(F)(F)c1ccc2[nH]c(-c3nncn3-c3ccccc3Cl)nc2c1	≥ 7.00
Clc1cc(-c2ccc3[nH]c(-c4nncn4-c4cccc(Cl)c4Cl)nc3c2)[nH]n1	≥ 7.00
OCc1cccc(OC(F)(F)F)c1-n1cnnc1-c1nc2cc(C(F)(F)F)ccc2[nH]1	≥ 7.00
Cc1ccc2[nH]c(-c3ccncc3-c3cccc(Cl)c3Cl)nc2c1	6.00 to 6.30
Cc1ccn(-c2cc(F)c3[nH]c(-c4nncn4-c4cnccc4C(F)(F)F)nc3c2)n1	≥ 7.00
CN(C)c1cc(F)c2[nH]c(-c3nncn3-c3cnccc3C(F)(F)F)nc2c1	≥ 7.00
CC(C#N)c1ccc2[nH]c(-c3nncn3-c3ccc(F)c(F)c3Cl)nc2c1 (stereo not shown)	≥ 7.00
FC(F)(F)c1ccc2[nH]c(C3CSCC3c3ccccc3Cl)nc2c1 (stereo not shown)	6.30 to 7.00
Clc1cccc(-n2cnnc2-c2nc3cc(-c4cnn[nH]4)ccc3[nH]2)c1Cl	6.30 to 7.00
CC(C)(C(N)=O)c1ccc2[nH]c(-c3nncn3-c3cccc(Cl)c3Cl)nc2c1	≥ 7.00

Task item: Any idea what its pIC50 is? The molecule is FC(F)(F)c1ccc2[nH]c(-c3nnc(S)n3-c3cccc(Cl)c3Cl)nc2c1
Reply: 6.30 to 7.00

Task item: Fill in the blank: the reported pIC50 of CS(=O)(=O)c1ccc(OC(F)(F)F)c(-n2cnnc2-c2nc3cc(C(F)(F)F)cc(F)c3[nH]2)c1 is ____.
Reply: ≥ 7.00

Task item: // lookup pIC50 for FC(F)(F)c1ccc2[nH]c(-c3nnc(Cl)cc3-c3ccccc3Cl)nc2c1
Reply: ≥ 7.00

* * *

- test-target: SARM1 (50-724) (Homo sapiens, UniProt Q6SZW1)
- Sequence (Q6SZW1 50-724): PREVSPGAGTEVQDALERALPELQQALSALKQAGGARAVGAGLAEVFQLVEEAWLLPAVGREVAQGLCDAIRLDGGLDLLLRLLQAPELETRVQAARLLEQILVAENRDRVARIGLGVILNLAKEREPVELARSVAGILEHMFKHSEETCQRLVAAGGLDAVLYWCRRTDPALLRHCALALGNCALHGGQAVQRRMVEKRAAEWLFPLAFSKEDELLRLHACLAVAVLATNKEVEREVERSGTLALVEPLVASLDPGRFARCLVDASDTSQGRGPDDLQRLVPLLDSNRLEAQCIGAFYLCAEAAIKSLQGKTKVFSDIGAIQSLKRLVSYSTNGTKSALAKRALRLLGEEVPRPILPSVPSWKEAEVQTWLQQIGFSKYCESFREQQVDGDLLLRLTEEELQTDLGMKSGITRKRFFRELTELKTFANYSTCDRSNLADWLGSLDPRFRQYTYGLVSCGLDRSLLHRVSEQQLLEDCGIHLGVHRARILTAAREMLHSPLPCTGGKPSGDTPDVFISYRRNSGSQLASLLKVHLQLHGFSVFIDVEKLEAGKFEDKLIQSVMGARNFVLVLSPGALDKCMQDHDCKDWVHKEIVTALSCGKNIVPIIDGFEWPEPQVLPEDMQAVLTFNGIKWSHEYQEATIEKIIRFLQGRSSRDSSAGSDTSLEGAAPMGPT
pIC50: −log10 of the molar value.
measured-parameter: pIC50

Task item: // query pIC50 value for entry FC(F)(F)c1ccc2[nH]c(-c3nncn3-c3cnccc3C(F)(F)F)c(-c3ccnnc3)c2c1
Reply: ≥ 7.00

Task item: Item under review: Cn1cc(-c2cccc(Cl)c2Cl)c(-c2nc3cc(C(F)(F)F)ccc3[nH]2)cc1=O . Reported pIC50?
Reply: ≥ 7.00

Task item: Fill in: pIC50 of FC(F)(F)c1ccc2[nH]c(-c3nncn3-c3cnccc3C(F)(F)F)c(C3CCNC3)c2c1 (stereo not drawn) is ___
Reply: 6.30 to 7.00

Task item: Please look up its pIC50: Cc1c(Cl)ccc2[nH]c(-c3nncn3-c3ccc(F)c(F)c3Cl)nc12
Reply: ≥ 7.00

Task item: GET /values?readout=pIC50&item= C[S+]([O-])c1ccc2[nH]c(-c3nncn3-c3cccc(Cl)c3Cl)nc2c1 (stereo not drawn)
Reply: 6.30 to 7.00

Task item: For the molecule shown here, CS(=O)(=O)NCc1nnc(-c2nc3cc(C(F)(F)F)ccc3[nH]2)n1-c1cccc(Cl)c1Cl , give the reported pIC50.
Reply: ≥ 7.00
